target: PTP1B (Homo sapiens, UniProt P18031); construct: purchased Sigma-Aldrich; experiment: Inhibition of human recombinant tyrosine phosphatase PTP1B (DiFMUP fluorescence); assay type: biochemical; settings: 1 µM; control solvent only; SD did not exceed 6%
Sequence (P18031 whole entry): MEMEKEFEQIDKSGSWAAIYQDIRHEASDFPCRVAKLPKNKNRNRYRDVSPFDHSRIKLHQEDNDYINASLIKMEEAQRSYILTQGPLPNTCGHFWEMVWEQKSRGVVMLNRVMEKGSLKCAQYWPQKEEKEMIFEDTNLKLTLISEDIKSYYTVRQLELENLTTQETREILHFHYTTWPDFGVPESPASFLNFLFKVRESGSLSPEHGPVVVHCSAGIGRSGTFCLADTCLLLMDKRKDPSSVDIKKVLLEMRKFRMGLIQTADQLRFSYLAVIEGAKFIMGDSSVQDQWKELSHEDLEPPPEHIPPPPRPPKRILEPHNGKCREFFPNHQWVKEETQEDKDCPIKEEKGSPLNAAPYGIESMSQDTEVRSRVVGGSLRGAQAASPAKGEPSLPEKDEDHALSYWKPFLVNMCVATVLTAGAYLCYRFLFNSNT
This section presents compounds with their documented Inhibition of PTP1B, percentage of inhibition of the control values.
Please state the figure in %; there is no need to write the unit.

// known answers, use as guide
In [3]: df
Out[3]:
                                   compound                           test_system  quantitative_result
0  O.O=C(NN=Cc1cc(Br)ccc1[O][V]1[O]C(c2ccccc2)=NN=Cc2cc(Br)ccc2[O]1)c1ccccc1 [VC032, [V(L8)(HL8)]⋅H2O]  PTP1B (Homo sapiens, UniProt P18031)                    9
1  CC(CC(=S)Nc1ccccc1)=NC(Cc1ccccc1)C(=O)[O][V](=[O])([Cl])[Cl] (stereo not drawn) [VC059, [VOCl2(L2)]·0.5Et2O·1.5HCl]  PTP1B (Homo sapiens, UniProt P18031)                   79

For the next question, use this compound.
Request: Assign Inhibition of PTP1B, percentage of inhibition of the control to the following record: O.[O]=[V]1[O]C(c2ccccc2O)=NN=Cc2cc(Br)ccc2[O]1.c1cnc2c(c1)ccc1cccnc12 [VC013, [VO(L6)(phen)]⋅H2O]
Result: 60
